# PROTOCOL NOTES: Cytotoxicity MTT assay
# Type: cell-based
# ASSAY CONDITIONS: rat, PC12 cells, read-out: Cell viability
Entries and their viability at 24 h

SMI: CC1=CC(C)=[N+]2C1=Cc1c(C)cc(/C=C/c3ccc(N4CCCCC4)s3)n1[B-]2(F)F
viability at 24 h: > 80%

SMI: CC1=CC(C)=[N+]2C1=Cc1c(C)cc(/C=C/c3ccc(N4CCCC4)s3)n1[B-]2(F)F
viability at 24 h: > 80%

SMI: CC1=CC(C)=[N+]2C1=Cc1c(C)cc(/C=C/c3ccc(N4CCCCCC4)s3)n1[B-]2(F)F
viability at 24 h: > 80%

====

# PROTOCOL NOTES: Hemolysis rate assay
# Type: cell-based
# ASSAY CONDITIONS: human, human red blood cells separated from whole blood, probe up to 100 µM, room temperature
Entries and their hemolysis at 3 h
MEASURED PARAMETER: hemolysis at 3 h

SMI: CC1=CC(C)=[N+]2C1=Cc1c(C)cc(/C=C/c3ccc(N4CCCC4)s3)n1[B-]2(F)F
MEASURED PARAMETER: hemolysis at 3 h
RESULT: < 5%

SMI: CC1=CC(C)=[N+]2C1=Cc1c(C)cc(/C=C/c3ccc(N4CCCCCC4)s3)n1[B-]2(F)F
MEASURED PARAMETER: hemolysis at 3 h
RESULT: < 5%

SMI: CC1=CC(C)=[N+]2C1=Cc1c(C)cc(/C=C/c3ccc(N4CCCCC4)s3)n1[B-]2(F)F
MEASURED PARAMETER: hemolysis at 3 h
RESULT: < 5%
